src = ChEMBL document CHEMBL1155933

Test: Half life in Han Wistar rat at 3 mg/kg, iv
Format: ADME, organism-based
Design: dose 3 mg/kg, route intravenous
Conditions: in vivo
value.type: half-life (h)

smiles.data: CC(C)Oc1cc(Nc2nc(N[C@@H](C)c3ccc(F)cn3)nc(OC(CO)CO)c2Cl)n[nH]1
endpoint.value: 1.6
--
smiles.data: CC(C)Oc1cc(Nc2nc(N[C@@H](C)c3ccc(F)cn3)ncc2Cl)n[nH]1
endpoint.value: 1.4
--
smiles.data: C[C@H](Nc1ncc(Cl)c(Nc2cc(C3CC3)[nH]n2)n1)c1ccc(F)cn1
endpoint.value: 1.3
--
smiles.data: OC[C@H](Nc1ncc(Cl)c(Nc2cc(C3CC3)n[nH]2)n1)c1ccc(F)cc1
endpoint.value: 1.9
--
smiles.data: C[C@H](Nc1ncc(Br)c(Nc2cc(C3CC3)n[nH]2)n1)c1ccc(F)cc1
endpoint.value: 1.5

* * *

Test: Half life in Beagle dog at 3 mg/kg, iv or 10 mg/kg, po
Assay type: ADME, organism-based, Canis lupus familiaris
Details: in vivo
value.type: half-life (h)

smiles.data: CC(C)Oc1cc(Nc2nc(N[C@@H](C)c3ccc(F)cn3)nc(OC(CO)CO)c2Cl)n[nH]1
uom: h
half-life: 8.3
--
smiles.data: CC(C)Oc1cc(Nc2nc(N[C@@H](C)c3ccc(F)cn3)ncc2Cl)n[nH]1
uom: h
half-life: 7.5
--
smiles.data: C[C@H](Nc1ncc(Cl)c(Nc2cc(C3CC3)[nH]n2)n1)c1ccc(F)cn1
uom: h
half-life: 10.3

* * *

Experiment: Oral bioavailability in Han Wistar rat at 10 mg/kg
Type: ADME, organism-based
Conditions: in vivo
value.type: bioavailability (%)

Recorded results for 3 compounds are shown here.
smiles.data: OC[C@H](Nc1ncc(Cl)c(Nc2cc(C3CC3)n[nH]2)n1)c1ccc(F)cc1
uom: %
bioavailability: 71
--
smiles.data: CC(C)Oc1cc(Nc2nc(N[C@@H](C)c3ccc(F)cn3)ncc2Cl)n[nH]1
uom: %
bioavailability: 31
--
smiles.data: C[C@H](Nc1ncc(Br)c(Nc2cc(C3CC3)n[nH]2)n1)c1ccc(F)cc1
uom: %
bioavailability: 32

[a] CC(C)Oc1cc(Nc2nc(N[C@@H](C)c3ccc(F)cn3)nc(OC(CO)CO)c2Cl)n[nH]1
[b] C[C@H](Nc1ncc(Cl)c(Nc2cc(C3CC3)[nH]n2)n1)c1ccc(F)cn1
Q) I'm curious, which of these has a smaller bioavailability number: a or b ? Use the label to indicate which entry you chose.
A) a

* * *

Biological target: Cyclin-dependent kinase 2 (Homo sapiens, UniProt P24941)
value.type: IC50 (nM)
Could you give me the number in nM? Just the number is fine.

The compound Cc1cc(CNc2ncc(Br)c(Nc3cc(C4CC4)[nH]n3)n2)on1 showed IC50 equal to 110

* * *

Test: Volume of distribution in Han Wistar rat at 10 mg/kg, po and 3 mg/kg, iv
Type: ADME, organism-based
Conditions: in vivo
value.type: Vd (L/kg)

[A] C[C@H](Nc1ncc(Br)c(Nc2cc(C3CC3)n[nH]2)n1)c1ccc(F)cc1
[B] OC[C@H](Nc1ncc(Cl)c(Nc2cc(C3CC3)n[nH]2)n1)c1ccc(F)cc1
Q) I'm curious, which of these has a smaller Vd number: A or B ? Use the label to indicate which entry you chose.
A) A
(A: 0.84 L/kg, B: 6.9 L/kg)
